The following compounds are shown together with reported IC50 values.
Molecular target: Amine oxidase [flavin-containing] A (Homo sapiens, UniProt P21397)
Sequence (P21397 whole entry): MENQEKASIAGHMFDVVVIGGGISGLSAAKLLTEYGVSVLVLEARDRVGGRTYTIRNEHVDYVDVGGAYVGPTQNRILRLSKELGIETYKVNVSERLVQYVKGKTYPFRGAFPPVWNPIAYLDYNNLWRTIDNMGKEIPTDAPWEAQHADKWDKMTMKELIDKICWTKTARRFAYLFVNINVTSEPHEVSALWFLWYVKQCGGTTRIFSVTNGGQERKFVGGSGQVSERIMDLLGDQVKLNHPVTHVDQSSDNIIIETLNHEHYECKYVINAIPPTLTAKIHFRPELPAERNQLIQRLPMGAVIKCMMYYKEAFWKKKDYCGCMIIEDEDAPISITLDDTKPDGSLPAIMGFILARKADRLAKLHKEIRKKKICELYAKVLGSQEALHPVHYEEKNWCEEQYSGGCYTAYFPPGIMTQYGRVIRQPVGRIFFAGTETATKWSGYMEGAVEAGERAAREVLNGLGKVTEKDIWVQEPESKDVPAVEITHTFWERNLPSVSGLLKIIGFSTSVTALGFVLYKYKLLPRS
Test: Inhibition of human recombinant MAO-A expressed in insect cell microsome assessed as 4-hydroxyquinoline formation using kynuramine as substrate after 20 mins by fluorescence spectrophotometry
Just the number in µM, nothing appended.

Record excerpt, results attached:
>  <Compound>
Cn1c(=O)c2c(nc(SCCc3ccccc3)n2C)n(C)c1=O

>  <Assayed Target>
Amine oxidase [flavin-containing] A (Homo sapiens, UniProt P21397)

>  <Measurement Unit>
µM

>  <IC50>
18.7

$$$$
>  <Compound>
COc1ccc(CCSc2nc3c(c(=O)n(C)c(=O)n3C)n2C)cc1

>  <Assayed Target>
Amine oxidase [flavin-containing] A (Homo sapiens, UniProt P21397)

>  <Measurement Unit>
µM

>  <IC50>
168

$$$$
>  <Compound>
Cn1c(=O)c2c(nc(SCCc3cccc(C(F)(F)F)c3)n2C)n(C)c1=O

>  <Assayed Target>
Amine oxidase [flavin-containing] A (Homo sapiens, UniProt P21397)

>  <Measurement Unit>
µM

>  <IC50>
141

$$$$

Prompt line: Can you look up the measured IC50 of Cn1c(=O)c2c(nc([S+]([O-])CCc3ccc(Br)cc3)n2C)n(C)c1=O (stereo not given) for me?
Response line: 57.3

Prompt line: Can you look up the measured IC50 of "Cc1ccc(CCSc2nc3c(c(=O)n(C)c(=O)n3C)n2C)cc1" for me?
Response line: 125

====

The following compounds are shown together with reported pIC50 values.
Target: Amine oxidase [flavin-containing] A (Homo sapiens, UniProt P21397)
Assay: Inhibition of human recombinant MAO-A expressed in insect cell microsome assessed as 4-hydroxyquinoline formation using kynuramine as substrate after 20 mins by fluorescence spectrophotometry
The read-out pIC50 is expressed as -log10 of concentration in moles per litre.

Record excerpt, results attached:
>  <Compound>
Cn1c(=O)c2c(nc([S+]([O-])CCc3ccc(F)cc3)n2C)n(C)c1=O (centres undefined)

>  <Value Type>
pIC50

>  <Test Value>
3.62

$$$$
>  <Compound>
Cn1c(=O)c2c(nc([S+]([O-])Cc3ccccc3)n2C)n(C)c1=O (centres undefined)

>  <Value Type>
pIC50

>  <Test Value>
3.60

$$$$
>  <Compound>
Cn1c(=O)c2c(nc(SCCc3ccc(Cl)cc3)n2C)n(C)c1=O

>  <Value Type>
pIC50

>  <Test Value>
5.07

$$$$

Turning now to a further record.
Prompt line: Can you look up the measured pIC50 of "Cn1c(=O)c2c(nc(SCCCc3ccc(Cl)cc3)n2C)n(C)c1=O" for me?
Response line: 6.15
